# PROTOCOL SUMMARY: yeast display, Sf9 membrane polyspecificity reagent, FACS + sequencing; frameworks hold sequencing errors
ENDPOINT LABEL: polyreactivity (PSR sort gate)

Take a look at these entries with their results.
RESIDUE STRING	ENDPOINT LABEL	REPORTED
QVQLVESGGGLVQAGGSLRLSCAASGITFDTYAMGCYIQAPGKERELVAAISKSGGSTYYADSVKGRFTISRDNAKNTVYLQMNSLKPEDTAVYYCNARYRNSGRYWDWYYYWGQGTQVTVSS	polyreactivity (PSR sort gate)	high polyreactivity
QVQLVESGGGLVQAGGSLRLSCAASGNTFVTNDMGWYRQAPRKERELVADISWGGASTYYADSVKGRFTISRDNAKNTVYLQMNSLIPEDTAVYYCYATDDITYTYSYDYWGQGTQVTVSS	polyreactivity (PSR sort gate)	low polyreactivity
QVQLVESGGGLVQAGGSLRLSCAASGSTFDTNTMGWYIQAPGKERELVAAITSSGTSTSYADSVKGRFTISRDNAKNTVYLQMNSLKPEDTAVYYCAALRPGGGDYSDYDYWGQGTQVSVSS	polyreactivity (PSR sort gate)	low polyreactivity
QVQLVESGGGLVQAGGSLRLSCAASGIIFPSYVMGWYRQAPGKERELVARISARGGRTYYADSVKGRFTISRDNAKNTVYLQMNSLKPEDTAVYYCAARWGITTWYDYWGQGTQVTVSS	polyreactivity (PSR sort gate)	high polyreactivity

Please give polyreactivity (PSR sort gate) for each item listed below.
1. QVQLVESGGGLVQAGGSLRLSCAASGITFPSYVMGWYRQAPGKERELVAAISWRGGSTYYADSVKGRFTISRDNAKNTVYLQMNSLKPEDTAVYYCAAGSARDDDYWGQGTQVTVSS
2. QVQLVESGGGLVQAGGSLRLSCAASGRTLSYNTMGWYRQAPGKEREFVAANTWSGGSTNYADSVKGRFTISRDNAKNTVYLQMNSLKPEDTAVYYCNADYLTVSWSIPEHVTVRLMYYWGQGTQVTVSS
3. QVQLVESGGGLVQAGGSLRLSCAASGSTFGPNAMGWYRQAPGKERELVAAIRSNGGRTYYADSVKGRFTISRDNAKNSVYLQMNSLKPEDTAVYYCAAPHYPYDTPYGYWGQGTQVTVSS

1: high polyreactivity; 2: low polyreactivity; 3: low polyreactivity

----------
# PROTOCOL SUMMARY: yeast display, Sf9 membrane polyspecificity reagent, FACS + sequencing; frameworks hold sequencing errors
ENDPOINT LABEL: polyreactivity (PSR sort gate)

RESIDUE STRING	ENDPOINT LABEL	REPORTED
QVQLEESGGGLVQAGGSLRLSCAASGFTFVDYVMGWYRQAPGKERELVAAISRRAGRTYYADSVKGRFTNSRDNAKNTVYFQMNSLKREDTAVYSCAAYLSRSYYAYDYWGQGTQVTVSS	polyreactivity (PSR sort gate)	high polyreactivity
QVQLVESGGGLVQAGGSLRLSCAASGSIILHNAMGWYRQAPGKERELVAGITGSGGSTYYADSVKGRFTISRDNAMNTVYLQMNSLKPEDTAVYYCAAGSRSRYYRYVYYKYVTMDYWGQGTQVTVSS	polyreactivity (PSR sort gate)	high polyreactivity
QVQLVESGGGLVQAGGSLRLSCAASGSIFPFYAMGWYRQAPGKERELVAVISTRGGSTYYADSVKGRFTISRDYAKNTVYFQMKSLKPEDTAVYYCAAKSVYRMGYWGQGTQVTVSS	polyreactivity (PSR sort gate)	high polyreactivity
